experiment: compound activity on host-cell Toxoplasma growth – dose response (AID 1259420); details: Toxoplasma gondii growth in host cells, no IFN-gamma; at 19.5 µM unless noted;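 further: host cells were HeLa; final incubation lasted 72 hours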
About 250 (25%) of roughly 1,000 compounds were called active. Inconclusive results (about 31%) are left out. Not all results are given here. Results with a measured potency or affinity are listed apart.
readout.type: max activity

smiles.representation	max activity
Cc1ccc(-c2cc(C(F)(F)F)nn2-c2ccc(S(N)(=O)=O)cc2)cc1	-6.96% [at 0.08 µM] (inactive)

Entry CC(C)NC(=O)N1CC(=O)N2[C@H](C1)[C@@H](c1ccc(/C=C/c3ccccc3)cc1)[C@@H]2CO has what max activity? 11.9% [at 5 µM] (inactive)

Entry COCC(=O)N1CC(=O)N2[C@H](CO)[C@@H](c3ccc(-c4ccncc4)cc3)[C@H]2C1 has what max activity? 9.86% [at 2.6 µM] (inactive)

Entry COC[C@H]1CN(C)C[C@]12CCN(C(=O)c1cc3ccccc3s1)C2 has what max activity? 11.6% (inactive)

Entry O=S(=O)(c1ccccc1F)N1CC[C@@H]2[C@H](CO)Nc3ccc(C4=CCCCC4)cc3[C@@H]21 has what max activity? -15.7% [at 5 µM] (inactive)

Entry CN(C)CCO[C@@H]1CN(C(=O)Cc2ccsc2)[C@H]2CCCO[C@@H]12 has what max activity? -11.4% [at 10 µM] (inactive)

Entry NCCCCCCNS(=O)(=O)c1ccc2c(Cl)cccc2c1 has what max activity? -5.19% [at 10 µM] (inactive)

Entry CO[C@@H]1CCN(S(=O)(=O)N(C)C)C[C@@H]1Cc1cccc(C)c1 has what max activity? -8.52% [at 10 µM] (inactive)
